Cited source for all entries: ChEMBL document CHEMBL1132889

Target: Trypanothione reductase (Trypanosoma cruzi) (UniProt P28593)
Sequence (P28593 whole entry, looked up): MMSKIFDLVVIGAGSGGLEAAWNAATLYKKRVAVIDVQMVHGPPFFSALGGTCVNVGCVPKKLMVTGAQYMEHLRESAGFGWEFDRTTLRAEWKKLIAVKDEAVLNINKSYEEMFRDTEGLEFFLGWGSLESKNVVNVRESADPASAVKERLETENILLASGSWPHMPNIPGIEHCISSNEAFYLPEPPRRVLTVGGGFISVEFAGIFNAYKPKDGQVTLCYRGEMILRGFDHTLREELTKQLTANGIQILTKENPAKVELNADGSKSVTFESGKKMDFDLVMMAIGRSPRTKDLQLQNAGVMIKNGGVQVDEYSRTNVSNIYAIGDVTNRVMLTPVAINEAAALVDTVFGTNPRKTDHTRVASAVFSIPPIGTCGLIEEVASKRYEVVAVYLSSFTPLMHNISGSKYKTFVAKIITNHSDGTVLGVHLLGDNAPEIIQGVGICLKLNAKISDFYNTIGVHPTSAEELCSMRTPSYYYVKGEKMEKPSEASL
Assay: The compound was evaluated in vitro for its inhibitory affect against trypanothione reductase
Parameters: concentration or dose not given beside the values
Details: concentration not given here
Respond with Criterion met for inhibition values of 50% and above, Criterion not met for values below.

| Smiles record | Class name |
| --- | --- |
| CN(C)CCCNC(=O)CCc1cccc2c1Oc1c(CCC(=O)NCCCN(C)C)cccc1C2(C)C | Criterion met |
| CN(C)CCCNC(=O)c1cc(C(C)(C)C)cc2c1Oc1c(C(=O)NCCCN(C)C)cc(C(C)(C)C)cc1C2(C)C | Criterion not met |
| CN(C)CCCNCCCc1cccc2c1Oc1c(CCCNCCCN(C)C)cccc1C2(C)C | Criterion met |
| CN(C)CCCNCc1cccc2c1Oc1c(CNCCCN(C)C)cccc1C2(C)C | Criterion not met |
| CN(C)CCC/N=C(\S)NCCCc1cccc2c1Oc1c(CCCN/C(S)=N/CCCN(C)C)cccc1C2(C)C | Criterion met |
| CN(C)CCCNC(=O)c1cccc2c1Oc1c(C(=O)NCCCN(C)C)cccc1C2(C)C | Criterion not met |

* * *

Test: Cytotoxicity against peritoneal macrophages of female CD1 mice culturing amastigote stages of Trypanosoma cruzi
Assay type: functional
Details: Mus musculus

| Smiles record | MIC |
| --- | --- |
| CN(C)CCCNC(=O)CCc1cccc2c1Oc1c(CCC(=O)NCCCN(C)C)cccc1C2(C)C | > 300 µg/mL |
| CN(C)CCCNC(=O)c1cc(C(C)(C)C)cc2c1Oc1c(C(=O)NCCCN(C)C)cc(C(C)(C)C)cc1C2(C)C | > 30 µg/mL |
| CN(C)CCCNCCCc1cccc2c1Oc1c(CCCNCCCN(C)C)cccc1C2(C)C | > 30 µg/mL |
| CN(C)CCCNCc1cccc2c1Oc1c(CNCCCN(C)C)cccc1C2(C)C | > 300 µg/mL |
| CN(C)CCC/N=C(\S)NCCCc1cccc2c1Oc1c(CCCN/C(S)=N/CCCN(C)C)cccc1C2(C)C | > 30 µg/mL |
| CN(C)CCCNC(=O)c1cccc2c1Oc1c(C(=O)NCCCN(C)C)cccc1C2(C)C | > 300 µg/mL |
